Assay: Pharmacokinetics in human (PDX-008, noncompartmental)
Format: in vivo
Details: both sexes, human, plasma, intravenous, 30 mg/m2, human, C1D6 or C2D6, 30 mg/m^2; range of the mean for males and females and for PDX-10a and PDX-10b; read-out: t1/2 term
Readout label: half-life

**Query** Given C#CC[C@H](Cc1cnc2nc(N)nc(N)c2n1)c1ccc(C(=O)N[C@@H](CCC(=O)O)C(=O)O)cc1 (single isomer, unassigned) [PDX-10b] , respond with its half-life.
**Result** 11 to 16 h

**Query** Given C#CC[C@@H](Cc1cnc2nc(N)nc(N)c2n1)c1ccc(C(=O)N[C@@H](CCC(=O)O)C(=O)O)cc1 (single isomer, unassigned) [PDX-10a] , respond with its half-life.
**Result** 11 to 16 h

----------
Assay: Pharmacokinetics in rat (PDX-T-07034-R)
Type: in vivo
Conditions: both sexes, plasma, 5 mg/kg, Day 1, 5 mg/kg, range of the mean for males and females and for PDX-10a and PDX-10b, read-out: CLtot
Parameter: clearance. Scope: all listed entries.

[
  {
    "Molecule": "C#CC[C@@H](Cc1cnc2nc(N)nc(N)c2n1)c1ccc(C(=O)N[C@@H](CCC(=O)O)C(=O)O)cc1 (single isomer, unassigned) [PDX-10a]",
    "Measurement": "2.9 to 4 mL/min"
  }
]

API: the following record is the query input.
**Query** Given C#CC[C@H](Cc1cnc2nc(N)nc(N)c2n1)c1ccc(C(=O)N[C@@H](CCC(=O)O)C(=O)O)cc1 (single isomer, unassigned) [PDX-10b] , respond with its clearance.
**Result** 2.9 to 4 mL/min

----------
Test: Pharmacokinetics in dog (PDX-T-07054-D)
Type: in vivo
Conditions: both sexes, dog, plasma, 0.7 mg/kg, dog, Day 281, 0.7 mg/kg; range of the mean for males and females and for PDX-10a and PDX-10b; read-out: CLtot
Protocol: Bioanalytical methods were developed and validated for quantitation of the 2 pralatrexate C10 diastereomers (PDX-10a and PDX-10b) in human, rat and dog plasma and urine. […] The derivatized extracts are injected on a chiral high-performance liquid chromatography (HPLC) column for quantitation of each diastereomer by liquid chromatography-tandem mass spectrometry (LC/MS/MS). The lower limit of quantitation (LLOQ) for both diastereomers in plasma and urine matrices was 0.5 ng/mL. […]
Readout label: clearance

[
  {
    "Compound": "C#CC[C@@H](Cc1cnc2nc(N)nc(N)c2n1)c1ccc(C(=O)N[C@@H](CCC(=O)O)C(=O)O)cc1 (single isomer, unassigned) [PDX-10a]",
    "Readout label": "clearance",
    "Measurement": "58 to 95 mL/min"
  }
]

API: the following record is the query input.
**Query** Given C#CC[C@H](Cc1cnc2nc(N)nc(N)c2n1)c1ccc(C(=O)N[C@@H](CCC(=O)O)C(=O)O)cc1 (single isomer, unassigned) [PDX-10b] , respond with its clearance.
**Result** 58 to 95 mL/min

----------
Assay: Pharmacokinetics in dog (PDX-T-07054-D)
Format: in vivo
Settings: both sexes, dog, plasma, 0.7 mg/kg, dog, Day 1, 0.7 mg/kg; range of the mean for males and females and for PDX-10a and PDX-10b; read-out: t1/2 term
Parameter: half-life. Scope: all listed entries.

[
  {
    "Compound": "C#CC[C@H](Cc1cnc2nc(N)nc(N)c2n1)c1ccc(C(=O)N[C@@H](CCC(=O)O)C(=O)O)cc1 (single isomer, unassigned) [PDX-10b]",
    "Readout label": "half-life",
    "Measurement": "4.4 to 4.9 h"
  }
]

**Query** Given C#CC[C@@H](Cc1cnc2nc(N)nc(N)c2n1)c1ccc(C(=O)N[C@@H](CCC(=O)O)C(=O)O)cc1 (single isomer, unassigned) [PDX-10a] , respond with its half-life.
**Result** 4.4 to 4.9 h

----------
Assay: Pharmacokinetics in dog (PDX-T-07054-D)
Assay type: in vivo
Settings: both sexes, dog, plasma, 0.7 mg/kg, dog, Day 281, 0.7 mg/kg; range of the mean for males and females and for PDX-10a and PDX-10b; read-out: Vdss
Readout label: Vd

[
  {
    "Molecule": "C#CC[C@@H](Cc1cnc2nc(N)nc(N)c2n1)c1ccc(C(=O)N[C@@H](CCC(=O)O)C(=O)O)cc1 (single isomer, unassigned) [PDX-10a]",
    "Readout label": "Vd",
    "Measurement": "15 to 24 L"
  }
]

**Query** Given C#CC[C@H](Cc1cnc2nc(N)nc(N)c2n1)c1ccc(C(=O)N[C@@H](CCC(=O)O)C(=O)O)cc1 (single isomer, unassigned) [PDX-10b] , respond with its Vd.
**Result** 15 to 24 L

----------
Parameter: half-life. Scope: all listed entries.
Test: Pharmacokinetics in rat (PDX-T-07034-R)
Type: in vivo
Details: both sexes, plasma, 5 mg/kg, Day 85, 5 mg/kg, range of the mean for males and females and for PDX-10a and PDX-10b, read-out: t1/2 term

[
  {
    "Compound": "C#CC[C@@H](Cc1cnc2nc(N)nc(N)c2n1)c1ccc(C(=O)N[C@@H](CCC(=O)O)C(=O)O)cc1 (single isomer, unassigned) [PDX-10a]",
    "Measurement": "1 to 6 h"
  }
]

**Query** Given C#CC[C@H](Cc1cnc2nc(N)nc(N)c2n1)c1ccc(C(=O)N[C@@H](CCC(=O)O)C(=O)O)cc1 (single isomer, unassigned) [PDX-10b] , respond with its half-life.
**Result** 1 to 6 h

----------
Experiment: Pharmacokinetics in dog (PDX-T-07054-D)
Assay type: in vivo
Settings: both sexes, dog, plasma, 0.7 mg/kg, dog, Day 1, 0.7 mg/kg (14 mg/m^2); racemic mixture, males and females (mean)
Protocol: Bioanalytical methods were developed and validated for quantitation of the 2 pralatrexate C10 diastereomers (PDX-10a and PDX-10b) in human, rat and dog plasma and urine. […] The derivatized extracts are injected on a chiral high-performance liquid chromatography (HPLC) column for quantitation of each diastereomer by liquid chromatography-tandem mass spectrometry (LC/MS/MS). The lower limit of quantitation (LLOQ) for both diastereomers in plasma and urine matrices was 0.5 ng/mL. […]
Readout label: Cmax
Phrase the answer as number then unit, nothing more needed.

**Query** Given C#CCC(Cc1cnc2nc(N)nc(N)c2n1)c1ccc(C(=O)N[C@@H](CCC(=O)O)C(=O)O)cc1 (mixture of isomers) [PDX, reference compound] , respond with its Cmax.
**Result** 1790 ng/mL

----------
Assay: Pharmacokinetics in human (PDX-008, noncompartmental)
Assay type: in vivo
Conditions: both sexes, human, plasma, intravenous, 30 mg/m^2, human, C1D1, 30 mg/m^2 (0.81 mg/kg); racemic mixture, males and females (mean), n = 10
Readout label: Cmax (ng/mL)
Reply with just the number (in ng/mL).

**Query** Given C#CCC(Cc1cnc2nc(N)nc(N)c2n1)c1ccc(C(=O)N[C@@H](CCC(=O)O)C(=O)O)cc1 (mixture of isomers) [PDX, reference compound] , respond with its Cmax.
**Result** 5820

----------
Test: Pharmacokinetics in rat (PDX-T-07034-R)
Type: in vivo
Conditions: both sexes, plasma, 5 mg/kg, Day 1, calculated using average BW 0.35 kg, read-out: Vdss relative to BW
Parameter: Vd. Scope: all listed entries.

[
  {
    "Molecule": "C#CC[C@H](Cc1cnc2nc(N)nc(N)c2n1)c1ccc(C(=O)N[C@@H](CCC(=O)O)C(=O)O)cc1 (single isomer, unassigned) [PDX-10b]",
    "Vd": "0.2 to 2.5 L/kg"
  }
]

API: the following record is the query input.
**Query** Given C#CC[C@@H](Cc1cnc2nc(N)nc(N)c2n1)c1ccc(C(=O)N[C@@H](CCC(=O)O)C(=O)O)cc1 (single isomer, unassigned) [PDX-10a] , respond with its Vd.
**Result** 0.2 to 2.5 L/kg

----------
Experiment: Pharmacokinetics in dog (PDX-T-07054-D)
Format: in vivo
Settings: both sexes, dog, plasma, 0.7 mg/kg, dog, Day 1; calculated using average BW 8.5 kg; read-out: Vdss relative to BW
Parameter: Vd. Scope: all listed entries.

[
  {
    "Compound": "C#CC[C@@H](Cc1cnc2nc(N)nc(N)c2n1)c1ccc(C(=O)N[C@@H](CCC(=O)O)C(=O)O)cc1 (single isomer, unassigned) [PDX-10a]",
    "Vd": "0.9 to 1.9 L/kg"
  }
]

**Query** Given C#CC[C@H](Cc1cnc2nc(N)nc(N)c2n1)c1ccc(C(=O)N[C@@H](CCC(=O)O)C(=O)O)cc1 (single isomer, unassigned) [PDX-10b] , respond with its Vd.
**Result** 0.9 to 1.9 L/kg

----------
Experiment: Pharmacokinetics in rat (PDX-T-07034-R)
Format: in vivo
Details: both sexes, plasma, 5 mg/kg, Day 1, 5 mg/kg, range of the mean for males and females and for PDX-10a and PDX-10b, read-out: Vdss
Readout label: Vd

[
  {
    "Compound": "C#CC[C@H](Cc1cnc2nc(N)nc(N)c2n1)c1ccc(C(=O)N[C@@H](CCC(=O)O)C(=O)O)cc1 (single isomer, unassigned) [PDX-10b]",
    "Vd": "0.07 to 0.89 L"
  }
]

API: the following record is the query input.
**Query** Given C#CC[C@@H](Cc1cnc2nc(N)nc(N)c2n1)c1ccc(C(=O)N[C@@H](CCC(=O)O)C(=O)O)cc1 (single isomer, unassigned) [PDX-10a] , respond with its Vd.
**Result** 0.07 to 0.89 L
